Measured values drawn from paper PMC12136788 for this set.

Target: T1, UNK ZnF1-3 (human, UniProt Q9C0B0 31-174)
T1 sequence: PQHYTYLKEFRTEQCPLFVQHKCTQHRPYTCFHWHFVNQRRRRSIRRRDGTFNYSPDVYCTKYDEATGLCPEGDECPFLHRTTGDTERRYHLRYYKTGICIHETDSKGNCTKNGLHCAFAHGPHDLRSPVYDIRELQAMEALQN
Assay: nsRBNS (natural sequence RNA bind-n-seq); RBNS binding buffer (assumed for nsRBNS): 25 mM Tris pH 7.5, 150 mM KCl, 3 mM MgCl2, 0.01% Triton X-100, 500 ug/ml BSA, 20 U/ml SUPERase-In, 4 C; UNK is unkempt and MSI1 is Musashi-1; names of the RNAs are library labels; protein concentration not given here; high values mean tight binding
Over roughly 24,000 sequences, “enrichment r” has its median near 0.99; the highest 2% begin near 3.7. Shown is part of a subset that was picked to be rich in the highest values.
Respond with met for binding signal values of 2 enrichment R and above, not met for values below.

Solved cases (5 shown):
binder	cat
chrX:165757501:165757502:-_ENSMUSG00000031352_ENSMUST00000112115|mus_hu|FALSE|FALSE (ssRNA) RNA: GGGAGUUCUACAGUCCGACGAUCGCAGGAGCAGAUGGAGACAAACCCAUGGCUGGAAACAGUGUUGACUGUAAACAAUUUUAAAUUUCCACCUGCUCCAGCCCGUGGUCCCCAGACCAAACCGGCCGCGGCCAGCCUGCCCUUCAACAGAGGAUUGAGCAUCA	not met
chr12:39763582:39763583:-_ENSG00000139116_ENST00000544797|hu_hu|FALSE|FALSE (ssRNA) RNA: GGGAGUUCUACAGUCCGACGAUCCUCUAAGAAUUGGGCAUUCACUUUAAAAUCUGGAGCAGGAAGCCCAUUUUUAAUUGCUAUGUGUUUUUUUUCUUCAAUACUCUUAAAAAGGUGUUUAACAGCUCGAGAAAUAAUACCCAGCAACAGAGGAUUGAGCAUCA	met
chr6:42636609:42636610:-_ENSMUSG00000036667_ENSMUST00000045054|mus_hu|FALSE|FALSE (ssRNA) RNA: GGGAGUUCUACAGUCCGACGAUCGGCAUCAAUACAGUAAACCCCCAGGGAGUCUUUCACUUCUGGCUCAACCUUUGCAUCCACUCCAGAGCCCUCGAGGAUUUUGGCCAAAGGUGCCAGGGAUGGGUGUACACCAAUGGGAGCCAACAGAGGAUUGAGCAUCA	not met
6624775_6624895_1421_CDS_ENSMUSG00000041272_ENSMUST00000039987|mouse|control|control (ssRNA) RNA: GGGAGUUCUACAGUCCGACGAUCGCUCGGAUGCAUGGCGGUGAGCUGAGGAGUCAUUCCUGGUUGUUGGUGAUAGUGAGAACUUAGGUACAGAGCUGAGUGGGCCUGGCUGGGCCCAUGGAAUACUGACGGCUUUGAGUUGACCAACAGAGGAUUGAGCAUCA	not met
chr22:38881817:38881818:-_ENSG00000100201_ENST00000396821|hu_hu|motif|central (ssRNA) RNA: GGGAGUUCUACAGUCCGACGAUCUUAUUCCAGACUGGAUCAUUUUGGUGGGCAGAAGAAACCUGGCAGUGAAUUCGGACGGAUCUGCAUGAAAAGACAAAUCACGAUGGUUGGGGGGAAAAAUUAAAAAAAAAAAAAGAAAAACAACAGAGGAUUGAGCAUCA	met

binding signal >= 2 enrichment R for 36507729_36507849_895_3pUTR_ENSMUSG00000043671_ENSMUST00000051377|mouse|control|control (ssRNA) RNA: GGGAGUUCUACAGUCCGACGAUCGAAAGAGGCUGUAAAUUUGGUCUCAGGAAGUAGGUAAUUGCUGCAAUCUGAAUUGCAAAAAAAGGCAGAGCCCAGUUCUCCCUCAGCGGGAUGGUAAACUCGACUCUUGUGGUGUCUAUUCAACAGAGGAUUGAGCAUCA ?
not met

Exam item: decide whether the reported binding signal for chr2:61719535:61719536:-_ENSG00000082898_ENST00000401558|hu_mus|FALSE|FALSE (ssRNA) RNA: GGGAGUUCUACAGUCCGACGAUCGUUUACUACUGUCUUCAAAAAUUUCCAGUGUGCUCUCAAAAAUCUUGGGUAUUGACCUACUAUGUACAUGAUAUUCGAUGCAAUAAUAGCUUUAUUAUCUUUGCCUCUUUUCUGCUCACACAACAGAGGAUUGAGCAUCA is at least 2 enrichment R.
not met
